- Test system: human cardiomyocytes
- assay.text: recording of human cardiomyocyte beating patterns
- Assay type: cell-based
- condition.label: 2 μM, 48 h
As shown below, each of these molecules has a reported Beating rate of human cardiomyocytes value.
Respond numerically; units are beats/minute and should not be typed.

Answered examples (3):
INSERT INTO results (molecule, observed_property, recorded_value) VALUES
  ('CC(C)OC(=O)[C@H](C)N[P@](=O)(OC[C@H]1O[C@@H](n2ccc(=O)[nH]c2=O)[C@](C)(F)[C@@H]1O)Oc1ccccc1', 'Beating rate of human cardiomyocytes', 25.5),
  ('CC(C)(CO)C(=O)SCCOP(=O)(NCc1ccccc1)OC[C@H]1O[C@@H](n2cnc3c(=O)[nH]c(N)nc32)[C@](C)(O)[C@@H]1O (mixture of isomers)', 'Beating rate of human cardiomyocytes', 24.0),
  ('COc1nc(N)nc2c1ncn2[C@@H]1O[C@H](COP(=O)(N[C@@H](C)C(=O)OCC(C)(C)C)Oc2cccc3ccccc23)[C@@H](O)[C@@]1(C)O (stereo partly shown)', 'Beating rate of human cardiomyocytes', 26.5);

Q) Kindly indicate its recorded Beating rate of human cardiomyocytes. Item: CC(C)OC(=O)CCc1ccccc1OP(=O)(N[C@@H](C)C(=O)OC(C)C)OC[C@H]1O[C@@H](n2cnc3c(N)nc(N)nc32)[C@](C)(O)[C@@H]1O (stereo partly shown)
A) 27.5

* * *

As shown below, each of these molecules has a reported Beating rate of human cardiomyocytes value.
- Test system: human cardiomyocytes
- assay.text: recording of human cardiomyocyte beating patterns
- Format: cell-based
- condition.label: 10 μM, 24 h
The reply should consist of the numeric value with the unit placed after it.

Answered examples (3):
INSERT INTO assay_data (molecule, recorded_value) VALUES
  ('CC(C)(CO)C(=O)SCCOP(=O)(NCc1ccccc1)OC[C@H]1O[C@@H](n2cnc3c(=O)[nH]c(N)nc32)[C@](C)(O)[C@@H]1O (mixture of isomers)', '31.0 ± 1.4 beats/minute'),
  ('CC(C)OC(=O)CCc1ccccc1OP(=O)(N[C@@H](C)C(=O)OC(C)C)OC[C@H]1O[C@@H](n2cnc3c(N)nc(N)nc32)[C@](C)(O)[C@@H]1O (stereo partly shown)', '25.5 ± 0.7 beats/minute'),
  ('COc1nc(N)nc2c1ncn2[C@@H]1O[C@H](COP(=O)(N[C@@H](C)C(=O)OCC(C)(C)C)Oc2cccc3ccccc23)[C@@H](O)[C@@]1(C)O (stereo partly shown)', '34.5 ± 0.7 beats/minute');

# ---- query molecule ----
Q) Kindly indicate its recorded Beating rate of human cardiomyocytes. Item: `CC(C)OC(=O)[C@H](C)N[P@](=O)(OC[C@H]1O[C@@H](n2ccc(=O)[nH]c2=O)[C@](C)(F)[C@@H]1O)Oc1ccccc1`
A) 30.0 ± 0 beats/minute

* * *

- assay.text: single dose escalation and seven day repeat dosing in dogs
- condition.label: dog, in vivo
observed.property: NOAEL at 7 day

Q) Kindly indicate its recorded NOAEL at 7 day. Item: CC(C)OC(=O)CCc1ccccc1OP(=O)(N[C@@H](C)C(=O)OC(C)C)OC[C@H]1O[C@@H](n2cnc3c(N)nc(N)nc32)[C@](C)(O)[C@@H]1O (stereo partly shown) [DAPN-PD]
A) < 40 mg/kg/day

* * *

- Tested on: human cardiomyocytes
- assay.text: recording of human cardiomyocyte beating patterns
- Type: cell-based
- condition.label: 10 μM, 48 h
observed.property: Beating rate of human cardiomyocytes (beats/minute)
Respond numerically; units are beats/minute and should not be typed.

INSERT INTO results (compound, observed_property, unit_abbrev, recorded_value) VALUES
  ('CC(C)OC(=O)CCc1ccccc1OP(=O)(N[C@@H](C)C(=O)OC(C)C)OC[C@H]1O[C@@H](n2cnc3c(N)nc(N)nc32)[C@](C)(O)[C@@H]1O (stereo partly shown)', 'Beating rate of human cardiomyocytes', 'beats/minute', 25.5),
  ('COc1nc(N)nc2c1ncn2[C@@H]1O[C@H](COP(=O)(N[C@@H](C)C(=O)OCC(C)(C)C)Oc2cccc3ccccc23)[C@@H](O)[C@@]1(C)O (stereo partly shown)', 'Beating rate of human cardiomyocytes', 'beats/minute', 35.5),
  ('CC(C)OC(=O)[C@H](C)N[P@](=O)(OC[C@H]1O[C@@H](n2ccc(=O)[nH]c2=O)[C@](C)(F)[C@@H]1O)Oc1ccccc1', 'Beating rate of human cardiomyocytes', 'beats/minute', 23.0);

# ---- query compound ----
Q) Kindly indicate its recorded Beating rate of human cardiomyocytes. Item: CC(C)(CO)C(=O)SCCOP(=O)(NCc1ccccc1)OC[C@H]1O[C@@H](n2cnc3c(=O)[nH]c(N)nc32)[C@](C)(O)[C@@H]1O (mixture of isomers)
A) 25.0
